Hey, just so you know, these numbers are from ChEMBL document CHEMBL1152631.

Observed pIC50 for 72 kDa type IV collagenase (Homo sapiens), reported per entry below.
pIC50: −log10 of the molar value.
value-type: pIC50

                            compound_smiles  modifier_sign  obs_value
0  O=C(/C=C/c1ccccc1)N[C@H](CC(=O)Nc1cccc([N+](=O)[O-])c1)C(=O)O              <       3.00
1  CCCCNC(=O)C[C@@H](NC(=O)/C=C/c1ccccc1)C(=O)NO              =       3.63
2  CCCCCNC(=O)C[C@@H](NC(=O)/C=C/c1ccccc1)C(=O)NO              =       3.71
3  CCCCCCNC(=O)C[C@@H](NC(=O)/C=C/c1ccccc1)C(=O)NO              =       3.75
4  CCCNC(=O)C[C@@H](NC(=O)/C=C/c1ccccc1)C(=O)NO              =       3.88
5  O=C(/C=C/c1ccccc1)N[C@H](CC(=O)Nc1ccc(Cl)cc1)C(=O)NO              =       3.71

====

Target: Aminopeptidase N (Sus scrofa, UniProt P15145)
Sequence (P15145 whole entry): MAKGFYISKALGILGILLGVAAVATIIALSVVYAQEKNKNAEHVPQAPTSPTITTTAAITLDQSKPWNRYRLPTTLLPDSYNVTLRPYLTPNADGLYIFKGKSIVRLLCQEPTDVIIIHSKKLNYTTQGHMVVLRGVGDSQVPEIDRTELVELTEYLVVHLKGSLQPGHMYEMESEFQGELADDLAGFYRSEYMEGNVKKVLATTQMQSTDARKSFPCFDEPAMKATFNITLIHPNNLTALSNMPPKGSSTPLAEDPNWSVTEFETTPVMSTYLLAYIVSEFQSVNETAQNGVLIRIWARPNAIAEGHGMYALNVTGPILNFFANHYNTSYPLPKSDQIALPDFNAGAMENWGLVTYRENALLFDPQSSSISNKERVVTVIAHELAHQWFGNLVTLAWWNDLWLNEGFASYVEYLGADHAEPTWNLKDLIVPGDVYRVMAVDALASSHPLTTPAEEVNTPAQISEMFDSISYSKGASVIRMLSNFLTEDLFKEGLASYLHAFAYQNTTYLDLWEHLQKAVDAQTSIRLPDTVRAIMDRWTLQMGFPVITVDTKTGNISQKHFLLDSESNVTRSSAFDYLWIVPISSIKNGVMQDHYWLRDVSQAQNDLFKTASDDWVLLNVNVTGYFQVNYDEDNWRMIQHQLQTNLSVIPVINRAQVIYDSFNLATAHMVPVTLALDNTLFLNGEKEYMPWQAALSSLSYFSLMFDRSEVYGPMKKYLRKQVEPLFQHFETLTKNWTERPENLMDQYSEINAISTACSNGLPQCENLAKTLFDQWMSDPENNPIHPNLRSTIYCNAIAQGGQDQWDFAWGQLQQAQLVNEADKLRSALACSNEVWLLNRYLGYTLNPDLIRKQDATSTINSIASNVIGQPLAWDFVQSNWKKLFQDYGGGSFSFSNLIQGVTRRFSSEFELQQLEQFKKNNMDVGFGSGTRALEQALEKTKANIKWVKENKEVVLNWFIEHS
value-type: log10 of IC50 (log10 of the value in µM)

>>> df
                            compound_smiles     value_type  obs_value
0  CCCCCNC(=O)C[C@@H](NC(=O)/C=C/c1ccccc1)C(=O)NO  log10 of IC50       1.24
1  O=C(/C=C/c1ccccc1)N[C@H](CC(=O)Nc1cccc(Cl)c1)C(=O)O  log10 of IC50       2.86
2  O=C(/C=C/c1ccccc1)N[C@H](CC(=O)Nc1ccc(Cl)cc1)C(=O)NO  log10 of IC50       2.28
3  O=C(/C=C/c1ccccc1)N[C@H](CC(=O)Nc1ccc([N+](=O)[O-])cc1)C(=O)NO  log10 of IC50       2.28
4  CC(C)NC(=O)C[C@@H](NC(=O)/C=C/c1ccccc1)C(=O)O  log10 of IC50       3.34
5  CCCCCCCCNC(=O)C[C@@H](NC(=O)/C=C/c1ccccc1)C(=O)NO  log10 of IC50       1.27
